Measured cytotoxicity at 41 h, 10 µM accompanies every entry in the list below.
method: in vitro
reported-conditions: human
// note: answer is a bare numeric in %

The following compounds have reported results that may help.
COC1(C)CCC2OC2(C)CCC2C1CC2(C)C (centres unmarked)
-11.1
C=C(C)[C@@H]1CC=C(CO)CC1
-27.4
COc1ccc(C(=O)O)c(O)c1OC [2-HYDROXY-3,4-DIMETHOXYBENZOIC ACID]
10.5

Param item = `CN(C)Cc1c[nH]c2ccccc12` ; retrieve measured cytotoxicity at 41 h, 10 µM.
-33.5

Looking for the measured cytotoxicity at 41 h, 10 µM of `COc1cc(/C=C/C(=O)CC(=O)/C=C/c2ccc(O)c(OC)c2)ccc1O` , can you help?
2.4

Tell me the measured cytotoxicity at 41 h, 10 µM of `COc1ccc(-c2oc3c(CC=C(C)C)c(O[C@@H]4O[C@H](CO)[C@@H](O)[C@H](O)[C@H]4O)cc(O)c3c(=O)c2O[C@@H]2O[C@@H](C)[C@H](O)[C@@H](O)[C@H]2O)cc1` , please.
-16.4

Param item = `CC(=O)O[C@H]1C[C@@H](OC(C)=O)C(C)(C)[C@@H]2C[C@@H](OC(C)=O)[C@]3(C)[C@H](CC[C@@]4(C)[C@H](c5ccoc5)OC(=O)[C@H]5O[C@@]534)[C@@]12C` ; retrieve measured cytotoxicity at 41 h, 10 µM.
8

If you can, please state the reported cytotoxicity at 41 h, 10 µM value of `C=C(C)[C@H]1CC=C(C)CC1` .
-15.7

====

Listed compounds paired with reported cytotoxicity at 10 µM
method: in vitro
Provide the reading as a plain figure in %.

CC(C)[C@@H]1NC(=O)[C@H](C)OC(=O)[C@@H](C(C)C)NC(=O)[C@@H](C(C)C)OC(=O)[C@H](C(C)C)NC(=O)[C@H](C)OC(=O)[C@@H](C(C)C)NC(=O)[C@@H](C(C)C)OC(=O)[C@H](C(C)C)NC(=O)[C@H](C)OC(=O)[C@@H](C(C)C)NC(=O)[C@@H](C(C)C)OC1=O [Valinomycin, reference compound]
-9.2

Suppose we examine the compound CC[C@H]1[C@@H]2C[C@H]3[C@@H]4N(C)c5ccccc5[C@]45C[C@@H]([C@H]2[C@H]5O)N3[C@@H]1O [AJMALINE] ; what cytotoxicity at 10 µM value has been reported?
6.9

Please report the recorded cytotoxicity at 10 µM for CC1(C)C=Cc2cc3ccc(=O)oc3cc2O1 [XANTHYLETIN] .
8.1

Requested field: cytotoxicity at 10 µM. Item: C[C@@H]1O[C@@H](O[C@H]2CC[C@]3(C=O)[C@H]4CC[C@]5(C)[C@@H](C6=CC(=O)OC6)CC[C@]5(O)[C@@H]4CC[C@]3(O)C2)[C@H](O)[C@H](O)[C@H]1O [CONVALLATOXIN]
99.9

# input compound: O=c1c(-c2ccc(O)cc2)coc2cc(O)cc(O)c12 [GENISTEIN] ; wanted: its cytotoxicity at 10 µM
12.7

GET /values?readout=cytotoxicity at 10 µM&item= CC(=O)O[C@H]1C(=O)[C@@]2(C)[C@H]([C@H](OC(=O)c3ccccc3)[C@]3(O)C[C@H](O)C(C)=C1C3(C)C)[C@]1(OC(C)=O)CO[C@@H]1C[C@@H]2O [BACCATIN III]
5.2

====

method: in vitro
reported-conditions: human
Property: cytotoxicity at 41 h, 10 µM; scope: individual compounds
The figure you give is taken to be in %; do not add the unit.

COc1cc(C)c(C(=O)O)c(O)c1
-26.6
COc1cc(-c2coc3cc(O[C@@H]4O[C@H](CO)[C@@H](O)[C@H](O)[C@H]4O)c(OC)c(O)c3c2=O)cc(O)c1OC
-10
OC[C@H]1O[C@@H](Oc2ccc(O)cc2)[C@H](O)[C@@H](O)[C@@H]1O
0.5
NC(C(=O)O)C(O)C(=O)O (stereo not drawn) [d,l-threo-3-HYDROXYASPARTIC ACID]
10.7

Please look at the following compound next.
# input compound: `C/C=C/c1ccc(OC)cc1` ; wanted: its cytotoxicity at 41 h, 10 µM
-5.8

====

Test system: HCT-8 host cells (Hs18S)
reported-conditions: primary screening at 10 uM, treated vs control
Labelling: Hs18S ΔCT reported below 0.01 becomes True; at or above becomes False.

Worked examples follow.
COc1cc2c(cc1OC)[C@@]13CCN4CC5=CCO[C@H]6CC(=O)N2[C@H]1[C@H]6[C@H]5C[C@H]43
True
CC(=O)O[C@H]1C[C@@H](OC(C)=O)C(C)(C)C2C[C@@H](O)[C@]3(C)C(CC[C@@]4(C)[C@H](c5ccoc5)OC(=O)[C@H]5O[C@]543)[C@]21C (stereo partly shown)
True
OC[C@H]1O[C@H](OCC2O[C@@H](O)[C@H](O)[C@@H](O)[C@@H]2O)[C@H](O)[C@@H](O)[C@H]1O (stereo partly shown)
True
CC1=C2C(=CO[C@H](C)[C@H]2C)C(O)=C(C(=O)O)C1=O
False
COc1ccc2c(c1)OCC(Cc1ccc(OC)c(OC)c1)C2=O (stereo not shown)
False

is_below(Hs18S ΔCT, 0.01) for `Cc1nccc2c1[nH]c1ccccc12` ?
False

Lab note: Hs18S ΔCT threshold 0.01. Does this compound come in strictly under it? `COC(=O)C1=CO[C@@H](O[C@@H]2O[C@H](CO)[C@@H](O)[C@H](O)[C@H]2O)[C@H]2[C@@H]1C(=O)C[C@@H]2C`
False

Below 0.01 on Hs18S ΔCT? Entry `COC1=CC(=O)C=C(OC)C1=O`
True

Is 0.01 strictly greater than the compound's reported Hs18S ΔCT? compound: COc1cc([C@@H]2c3cc4c(cc3[C@H](OC(C)=O)[C@H]3COC(=O)[C@H]23)OCO4)cc(OC)c1OC [PODOPHYLLIN ACETATE]
False

Please determine if `O=c1cc[nH]c(=O)[nH]1` is below 0.01 in terms of Hs18S ΔCT.
True

Dear reviewer, please state whether `C/C=C1\[C@H]2C=C(C)C[C@]1(N)c1ccc(=O)[nH]c1C2` has Hs18S ΔCT strictly beneath 0.01.
False

Please indicate whether the reported Hs18S ΔCT of `COc1cc2c(cc1OC)[C@@H]1C(=O)c3ccc4oc(C(C)C)cc4c3O[C@@H]1CO2` is strictly below 0.01.
False

====

System: HCT-8 host cells (Hs18S)
reported-conditions: primary screening at 10 uM, from Hs18S ΔCT
quantity-kind: Cytotoxicity (%)
// return numeric value only (unit: %, not printed)

Cl.NCCc1ccccc1 [PHENETHYLAMINE HYDROCHLORIDE]
87.4
C[N+](C)(C)CC(O)CC(=O)O.[Cl-] (stereo not drawn) [CARNITINE (dl) HYDROCHLORIDE]
-73.4
N[C@@H](CSCSC[C@H](N)C(=O)O)C(=O)O
0.2
O=C[C@H](O)[C@H](O)CO
14.6
O=C1CCC[C@@H]2[C@H]3C[C@@H](CN12)[C@@H]1CCCCN1C3.[O-][Cl+3]([O-])([O-])O [LUPANINE PERCHLORATE]
-6.1
CC(=O)O.Cc1cc2c(C(C)C)c(O)c(O)c(C=O)c2c(O)c1-c1c(C)cc2c(C(C)C)c(O)c(O)c(C=O)c2c1O
-7.1
C[C@@H]1CC[C@@]2(OC1)O[C@H]1C[C@H]3[C@@H]4CC[C@H]5C[C@@H](O)CC[C@]5(C)C4=CC[C@]3(C)[C@H]1[C@@H]2C [3beta-HYDROXYISOALLOSPIROST-9(11)-ENE]
-12.6

# next molecule below
Can you look up Cytotoxicity (%) on HCT-8 host cells (Hs18S) for CC1(C)CC2C1CC[C@]1(C)CCC3C(C(=O)O)CC(=O)O[C@@]32C1 (some centres unmarked) ?
28.8

====

Reported Hs18S ΔCT by item:
Test system: HCT-8 host cells (Hs18S)
reported-conditions: human, 41 h, 10 μM
Write the value as a bare number.

Some molecules with known Hs18S ΔCT results, for comparison:
COc1cc(C)c(C(=O)O)c(O)c1
-0.34
C/C1=C\CCC(=O)C2CC(C)(C)C2CC1 (stereo not shown)
-0.05
C=CC1=C(C)/C(=C/c2[nH]c(Cc3[nH]c(/C=C4\NC(=O)C(C)=C4C=C)c(C)c3CCC(=O)O)c(CCC(=O)O)c2C)NC1=O
-0.01

Notebook: pull reported Hs18S ΔCT for HCT-8 host cells (Hs18S), entry O=C1C=C2CC3(O)COc4cc(O)ccc4C3=C2C=C1O (stereo not shown)
0.03

GET /values?readout=Hs18S ΔCT&system=HCT-8 host cells (Hs18S)&item= CCCCCCCCCCCCCCCC(=O)OCC(O)CO (stereo not shown)
-0.10

Recorded Hs18S ΔCT for `CC(C)CCC[C@@H](C)[C@H]1CC[C@H]2[C@@H]3CC=C4C[C@@H](O)CC[C@]4(C)[C@H]3CC[C@]12C` with HCT-8 host cells (Hs18S), please?
-0.05
